- tested.system: Retinoic acid receptor RXR-beta (Homo sapiens, UniProt P28702)
- Sequence (P28702 whole entry): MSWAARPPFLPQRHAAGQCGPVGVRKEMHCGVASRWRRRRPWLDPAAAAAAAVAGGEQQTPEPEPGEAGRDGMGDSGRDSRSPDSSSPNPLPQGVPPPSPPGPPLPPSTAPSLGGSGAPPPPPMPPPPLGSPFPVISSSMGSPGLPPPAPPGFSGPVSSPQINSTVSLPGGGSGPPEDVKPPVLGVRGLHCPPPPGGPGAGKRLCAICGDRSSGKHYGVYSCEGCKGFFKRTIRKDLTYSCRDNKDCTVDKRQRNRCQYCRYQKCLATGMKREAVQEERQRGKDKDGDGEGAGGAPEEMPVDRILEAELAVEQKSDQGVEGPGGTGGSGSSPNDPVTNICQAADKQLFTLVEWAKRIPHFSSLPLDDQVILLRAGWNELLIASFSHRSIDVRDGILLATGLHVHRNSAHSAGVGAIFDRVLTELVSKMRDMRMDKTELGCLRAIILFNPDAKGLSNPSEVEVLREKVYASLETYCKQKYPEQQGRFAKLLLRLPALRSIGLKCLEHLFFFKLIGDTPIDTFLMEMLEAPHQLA
- assay: Agonist activity at Gal4-LBD fused RXRbeta (unknown origin) expressed in HEK293T cells after 14 to 16 hrs by dual-Glo luciferase assay
assay.readout: pEC50
One number for each entry, as −log10 of the molar value.

[
  {
    "substance.smiles": "Cc1cc(-c2cc(C(C)(C)C)cc(C(C)(C)C)c2)ccc1C(=O)O",
    "pEC50": 5.18
  }
]

Provide each entry's pEC50 from the list below.
1. CC(C)Oc1cccc(-c2ccc(C(=O)O)cc2)c1
2. CC(C)c1cccc(-c2ccc(C(=O)O)cc2)c1
3. O=C(O)c1ccc(-c2cc(C(F)(F)F)cc(C(F)(F)F)c2)cc1
4. CCc1cc(CC)cc(-c2ccc(C(=O)O)cc2)c1
5. CC(C)(C)c1cc(-c2ccc(CC(=O)O)cc2)cc(C(C)(C)C)c1

**A:**
1. 4.87
2. 4.79
3. 5.43
4. 5.17
5. 6.10

Measured values drawn from ChEMBL document CHEMBL4304816 for this set.
